Tested on: MX-1 breast xenograft, nude mice, tumor weight T/C
Test: NCI In Vivo Anticancer Drug Screen. Data for tumor model Human Mammary Carcinoma MX-1 Xenograft (intrarenal inoculation) in NU/NU Swiss (nude) mice
Conditions: endpoint: mean tumor weight change; dose: 25.0 mg/kg/injection; schedule: Q04DX003 (sc); vehicle: saline; higher = larger tumour
Procedure: The antitumor activity of compounds was measured in mice bearing transplantable tumors. Survival or tumor size were measured and the results are expressed as the measurement made in the treated group (T) divided by the measurement made in the vehicle treated control group (C). The tumor model used in this assay is Human Mammary Carcinoma MX-1 Xenograft (intrarenal inoculation) in NU/NU Swiss (nude) mice
Records with an inconclusive call do not appear.
Overview of reported T/C across a group of molecules:
assay-readout: T/C

• C[CH2][Ge]1([CH2]C)[CH2]CC2(CCN(CCCN(C)C)C2)C[CH2]1 = 92 % of control
• c1cc(-c2cc3ccc(C4=NCCN4)cc3[nH]2)ccc1C1=NCCN1 = 66 % of control
• Oc1ccc(O)cc1 = 81 % of control
• CNc1nc2c(N)ncnc2n1C1OC(CO)C(O)C1O (stereo not drawn) = 92 % of control
• ClCCCN1CCCCC1CCl (stereo not drawn) = 1 % of control
• CN(N=O)C(N)=O = 54 % of control
• [N-]=[N+]=CC(=O)CCC(N)C(=O)O (stereo not drawn) = -7 % of control
• CCN=C=NCCCN(C)C = 112 % of control
• O=c1[nH]cnc2c1ccn2C1OC(CO)C(O)C1O (stereo not drawn) = 71 % of control
• COc1ccc(C(=O)C(CN(C)C)CN(C)C)cc1 = 123 % of control
• O=c1n(CC2CO2)c(=O)n(CC2CO2)c(=O)n1CC1CO1 (stereo not drawn) = 26 % of control
• OCCN1CCN(CC/C=C2/c3ccccc3Sc3ccc(Cl)cc32)CC1 = 47 % of control
• OCC1OC(n2cnc3cncnc32)C(O)C1O (stereo not drawn) = 106 % of control
